# percentage of growth (colonies vs control) listing for each entry below
Tested on: human tumor H5349 BREAST
Test: Human Tumor Stem Cell Assay, colony growth after one hour exposure
Format: cell-based
Settings: LO: furandione 0.2 mcg/ml; standard drugs 10% of peak plasma concentration; 1 h
Give just the number in %; leave the unit off.

Cc1ccc(C=C2C(=O)COC2=O)s1	82
N[C@@H](Cc1ccc(N(CCCl)CCCl)cc1)C(=O)O	63
CC[C@]1(O)C[C@@H]2CN(CCc3c([nH]c4ccccc34)[C@@](C(=O)OC)(c3cc4c(cc3OC)N(C)[C@H]3[C@@](O)(C(=O)OC)[C@H](OC(C)=O)[C@]5(CC)C=CCN6CC[C@]43[C@@H]65)C2)C1	70

Fill in: percentage of growth (colonies vs control) of N.N.[Cl][Pt][Cl] [CPDD, CISPLATIN] is ___
48

====

Tested on: human tumor H5319 BREAST
Assay: Human Tumor Stem Cell Assay, colony growth after one hour exposure
Type: cell-based
Settings: HI: furandione 1.0 mcg/ml; standard drugs 50% of peak plasma concentration; 1 h
measurement.name: percentage of growth (colonies vs control) (%)
Give just the number in %; leave the unit off.

# count of solved cases: 3
CO[C@@]12[C@H](COC(N)=O)C3=C(C(=O)C(C)=C(N)C3=O)N1C[C@@H]1N[C@@H]12 [MTC, MITOMYCIN C]	72
COc1cccc2c1C(=O)c1c(O)c3c(c(O)c1C2=O)C[C@@](O)(C(=O)CO)C[C@@H]3O[C@H]1C[C@H](N)[C@H](O)[C@H](C)O1 [ADR, ADRIAMYCIN]	100
O=c1[nH]cc(F)c(=O)[nH]1 [Compound 5FU, 5FLUORACIL]	111

Fill in: percentage of growth (colonies vs control) of N[C@@H](Cc1ccc(N(CCCl)CCCl)cc1)C(=O)O [MPL, MELPHALAN] is ___
85

====

System: human tumor H5337 COLON
Test: Human Tumor Stem Cell Assay, colony growth after one hour exposure
Assay type: cell-based
Conditions: LO: furandione 0.2 mcg/ml; standard drugs 10% of peak plasma concentration; 1 h
Threshold 80%. percentage of growth (colonies vs control) below it: True. percentage of growth (colonies vs control) at it or above: False.

Solved entries (count: 4):
CC[C@]1(O)C[C@@H]2CN(CCc3c([nH]c4ccccc34)[C@@](C(=O)OC)(c3cc4c(cc3OC)N(C)[C@H]3[C@@](O)(C(=O)OC)[C@H](OC(C)=O)[C@]5(CC)C=CCN6CC[C@]43[C@@H]65)C2)C1	True
Cc1ccc(C=C2C(=O)COC2=O)s1	True
N.N.[Cl][Pt][Cl] [CPDD, CISPLATIN]	False
N[C@@H](Cc1ccc(N(CCCl)CCCl)cc1)C(=O)O	True

Hi there! Is percentage of growth (colonies vs control) for "O=c1[nH]cc(F)c(=O)[nH]1" below 80%, do you know?
True

====

Test system: human tumor H5337 COLON
Experiment: Human Tumor Stem Cell Assay, colony growth after one hour exposure
Type: cell-based
Conditions: HI: furandione 1.0 mcg/ml; standard drugs 50% of peak plasma concentration; 1 h
Threshold 70%. percentage of growth (colonies vs control) below it: 1. percentage of growth (colonies vs control) at it or above: -1.

CC[C@]1(O)C[C@@H]2CN(CCc3c([nH]c4ccccc34)[C@@](C(=O)OC)(c3cc4c(cc3OC)N(C)[C@H]3[C@@](O)(C(=O)OC)[C@H](OC(C)=O)[C@]5(CC)C=CCN6CC[C@]43[C@@H]65)C2)C1	1
N[C@@H](Cc1ccc(N(CCCl)CCCl)cc1)C(=O)O	1
N.N.[Cl][Pt][Cl] [CPDD, CISPLATIN]	1
Cc1ccc(C=C2C(=O)COC2=O)s1	1

Field: next compound
Hi there! Is percentage of growth (colonies vs control) for "O=NN(CCCl)C(=O)NCCCl" below 70%, do you know?
-1

====

System: human tumor H5322 STOMACH
Experiment: Human Tumor Stem Cell Assay, colony growth after one hour exposure
Assay type: cell-based
Details: LO: furandione 0.2 mcg/ml; standard drugs 10% of peak plasma concentration; 1 h
# percentage of growth (colonies vs control) listing for each entry below
Give just the number in %; leave the unit off.

# count of solved cases: 4
CC[C@]1(O)C[C@@H]2CN(CCc3c([nH]c4ccccc34)[C@@](C(=O)OC)(c3cc4c(cc3OC)N(C)[C@H]3[C@@](O)(C(=O)OC)[C@H](OC(C)=O)[C@]5(CC)C=CCN6CC[C@]43[C@@H]65)C2)C1 [VBL, VINBLASTINE]	40
N.N.[Cl][Pt][Cl] [CPDD, CISPLATIN]	63
N[C@@H](Cc1ccc(N(CCCl)CCCl)cc1)C(=O)O [MPL, MELPHALAN]	54
COc1cccc2c1C(=O)c1c(O)c3c(c(O)c1C2=O)C[C@@](O)(C(=O)CO)C[C@@H]3O[C@H]1C[C@H](N)[C@H](O)[C@H](C)O1 [ADR, ADRIAMYCIN]	55

# context switch: different compound, same percentage of growth (colonies vs control)
Fill in: percentage of growth (colonies vs control) of Cc1ccc(C=C2C(=O)COC2=O)s1 [Compound 4] is ___
68

====

# percentage of growth (colonies vs control) listing for each entry below
Tested on: human tumor H5319 BREAST
Assay: Human Tumor Stem Cell Assay, colony growth after one hour exposure
Format: cell-based
Conditions: HI: furandione 1.0 mcg/ml; standard drugs 50% of peak plasma concentration; 1 h
Give just the number in %; leave the unit off.

# count of solved cases: 2
Cc1ccc(C=C2C(=O)COC2=O)s1	6
O=NN(CCCl)C(=O)NCCCl	122

Fill in: percentage of growth (colonies vs control) of "CC[C@]1(O)C[C@@H]2CN(CCc3c([nH]c4ccccc34)[C@@](C(=O)OC)(c3cc4c(cc3OC)N(C)[C@H]3[C@@](O)(C(=O)OC)[C@H](OC(C)=O)[C@]5(CC)C=CCN6CC[C@]43[C@@H]65)C2)C1" is ___
6
